Test system: RXF 393
procedureDetails: NCI tumour cell line growth inhibition, 48 h
Calls of active or inactive are those of the source. No stated cut-off is given here; in the data, active = GI50 up to about 1.1 µM and inactive = higher.
Thanks in advance; please answer with one of these: Y = active, N = inactive

These recorded examples may help you get a feel for the data.
- compound: "COC(=O)Cc1ccc2c(cnn2-c2ccccc2)c1OC"
  answerLabel: "N"
- compound: "CN(C)CCNc1ccc2c(=O)n(CCN(C)C)c(=O)n3c4ccc(N)cc4c(=O)c1c23"
  answerLabel: "Y"
- compound: "COc1ccc(/C=C2\\CN(C)CC3C2=NC(=S)NC3c2ccc(OC)cc2)cc1 (stereo unspecified)"
  answerLabel: "N"
- compound: "Cc1cccc(/N=N/c2c(C)nn(C(=O)CC(=O)Nc3ccc(Cl)cc3)c2C)c1"
  answerLabel: "N"
- compound: "CCN(CC)CCCC(C)Nc1c(Sc2cnc3cc(Cl)ccc3c2NC(C)CCCN(CC)CC)cnc2cc(Cl)ccc12 (stereo unspecified)"
  answerLabel: "N"
- compound: "NCC(O)CSCc1ccc(Cl)cc1 (stereo unspecified)"
  answerLabel: "N"
- compound: "CN(C)Cc1cc(O)c(O)c(CN(C)C)c1"
  answerLabel: "N"
- compound: "NC1=C(N2CCOCC2)C(=O)NC2=N/C(=C\\c3ccccc3O)C(=O)N21"
  answerLabel: "N"
- compound: "NC(=O)CCC(NC(=O)Cc1ccccc1)C(=O)O (stereo unspecified)"
  answerLabel: "N"
- compound: "CCCCN(CCCC)c1ccc(/N=N/c2ccc(S(=O)(=O)O)cc2)cc1"
  answerLabel: "N"

Could you now consider this next compound?
Query: Recorded call for CCCC(=O)NC(Nc1cc(C)ccn1)(C(=O)OCC)C(F)(F)F (stereo unspecified) ?
Response: N
